# Test system: SNB-78
# PROCEDURE DETAILS: NCI tumour cell line growth inhibition, 48 h
Activity calls are given as the source filed them. Rule as the data show it: active = GI50 up to about 1.1 µM and inactive = higher.
EXPERIMENTAL READOUT: GI50

MOLECULE: CCOP(=O)(OCC)C1CCCCOC1=O (stereo not drawn)
SUBJECT OF TEST: SNB-78
RESULT: > 100 µM (inactive)
//
MOLECULE: COCOCCC#CCO
SUBJECT OF TEST: SNB-78
RESULT: > 100 µM (inactive)
//
MOLECULE: Nc1ncnc2c1ncn2COC/C=C/I
SUBJECT OF TEST: SNB-78
RESULT: > 100 µM (inactive)

----------
# Tested on: NCI-H226
# PROCEDURE DETAILS: NCI tumour cell line growth inhibition, 48 h
The source made the active and inactive calls. Rule as the data show it: active = GI50 up to about 1.1 µM and inactive = higher.

COMPOUND: O=c1c(C(c2ccc3ccccc3c2)c2c(O)oc3cc(O)ccc3c2=O)c(O)oc2cc(O)ccc12
SUBJECT OF TEST: NCI-H226
GI50: > 100 µM (inactive)
--
COMPOUND: CCN1C[C@]2(C)CC[C@H](OCc3ccccc3)C34C5C[C@@H]6CC[C@](O)(C(C[C@@H]32)C14)C5[C@H]6OCc1ccccc1 (some centres undefined)
SUBJECT OF TEST: NCI-H226
GI50: > 100 µM (inactive)
--
COMPOUND: CCCC(=O)n1[nH]c(=O)n(-c2ccc(Cl)cc2)c1=O
SUBJECT OF TEST: NCI-H226
GI50: > 100 µM (inactive)
--
COMPOUND: CCN(CC)C(=O)COc1cc2c(O)c3c(O)c(C)c4c(c13)C(=O)C(C)(OC=CC(OC)C(C)C(OC(C)=O)C(C)C(O)C(C)C(O)C(C)C=CC=C(C)C(=O)N2)O4 (centres undefined)
SUBJECT OF TEST: NCI-H226
GI50: > 100 µM (inactive)
--
COMPOUND: COc1ccc2c(c1)-c1nc(=S)n(CCN(C)C)c3ccc([N+](=O)[O-])c(c13)N2
SUBJECT OF TEST: NCI-H226
GI50: 0.973 µM (active)
--
COMPOUND: O=C(/C=C/c1ccc(Cl)c(Cl)c1)c1ccc(F)cc1
SUBJECT OF TEST: NCI-H226
GI50: 33.1 µM (inactive)
--
COMPOUND: CC1=Nc2sc3c(c2C2=NCCN12)CCCC3
SUBJECT OF TEST: NCI-H226
GI50: 15.1 µM (inactive)
--
COMPOUND: O=C(O)CCC(=O)N1c2ccccc2CC1c1c[nH]c2ccccc12 (centres undefined)
SUBJECT OF TEST: NCI-H226
GI50: > 100 µM (inactive)
--
COMPOUND: Nc1c(C(=O)Nc2ccccc2)[n+]([O-])c2ccccc2[n+]1[O-]
SUBJECT OF TEST: NCI-H226
GI50: 23.9 µM (inactive)

----------
# System: SF-268
# PROCEDURE DETAILS: NCI tumour cell line growth inhibition, 48 h
Activity calls are given as the source filed them. Rule as the data show it: active = GI50 up to about 1.1 µM and inactive = higher.
Labels: active, inactive

MOLECULE: OC1NC2CC3NC(O)C(O)NC3CC2NC1O (stereo not given)
LABEL: inactive
--
MOLECULE: C=Cc1cc(OC)c2c(c1)c(=O)oc1c2cc(OC)c2c(O)ccc(C3OC(C)C(O)C(C)(O)C3O)c21 (stereo not given)
LABEL: active
--
MOLECULE: CC(=O)Oc1c(C)cc2c(c1C)C(C)CN2C(C)=O (stereo not given)
LABEL: inactive
--
MOLECULE: CCc1c[n+]2c(cc1C1=CN3c4ccccc4[C@]45CCN6C/C(=C/CO)[C@H](C[C@H]64)[C@@H]([C@@H]1O)[C@H]35)-c1[nH]c3ccccc3c1CC2
LABEL: inactive
--
MOLECULE: CN(c1ccccc1)S(=O)(=O)c1ccccc1[N+](=O)[O-]
LABEL: inactive
--
MOLECULE: CCN(CC)CCCC(C)Nc1ccnc2ccc3nn(C)nc3c12 (stereo not given)
LABEL: inactive
--
MOLECULE: CN(C)CCCNC(=O)c1cccc2nc3ccccc3nc12
LABEL: active
--
MOLECULE: CCCCCCCCCCCC1CCCC(C)N1 (stereo not given)
LABEL: inactive
--
MOLECULE: COc1cc2c(cc1OC)CC(=O)Nc1cc(OC)c(OC)cc1CC2
LABEL: inactive
--
MOLECULE: COc1ccc2c(CCNS(=O)(=O)c3ccccc3)c(C(C)=O)[nH]c2c1[N+](=O)[O-]
LABEL: inactive

----------
# GI50 values compiled below
# Tested on: NCI-H460
# PROCEDURE DETAILS: NCI tumour cell line growth inhibition, 48 h
The source made the active and inactive calls. Cut-off read from the data, not from the text of the source: active = GI50 up to about 1.1 µM and inactive = higher.

MOLECULE: C=C1CCCC(C)(C)[C@@H]1CC/C(C)=C/Cn1c2cccc(=O)c-2nc2ccccc21
SUBJECT OF TEST: NCI-H460
GI50: 1.21 µM (inactive)

MOLECULE: O=C1c2ccccc2-c2nc(-c3ccncc3)cc3c2c1nc1ccccc13
SUBJECT OF TEST: NCI-H460
GI50: 10.5 µM (inactive)

MOLECULE: Cc1ccc2nc(-c3ccc(N)c(Br)c3)sc2c1
SUBJECT OF TEST: NCI-H460
GI50: 5.6 µM (inactive)

MOLECULE: C[C@]12CCC(=O)C=C1CC[C@@H]1[C@@H]2CC[C@]2(C)C(=O)NC(=O)C[C@@H]12
SUBJECT OF TEST: NCI-H460
GI50: > 100 µM (inactive)

MOLECULE: O=c1c2cc([N+](=O)[O-])cnc2sn1-c1ccc(Br)cc1
SUBJECT OF TEST: NCI-H460
GI50: 66.8 µM (inactive)

MOLECULE: CC(C)(C(=O)N(C(=O)N1CCN(c2ccccc2)CC1)S(=O)(=O)c1ccccc1)c1ccc(Cl)cc1
SUBJECT OF TEST: NCI-H460
GI50: 28.8 µM (inactive)

MOLECULE: C[C@@]12CC[C@H]3[C@@H]4CCC(=O)N[C@@]4(C)CC[C@@H]3[C@@]1(C)CC[C@H](OC(=O)Cc1ccc(N(CCCl)CCCl)cc1)C2
SUBJECT OF TEST: NCI-H460
GI50: 13.7 µM (inactive)

MOLECULE: CC(C)C(Nc1c2ccccc2[n+]([O-])c2ccccc12)C(=O)O (configuration not stated)
SUBJECT OF TEST: NCI-H460
GI50: > 100 µM (inactive)

MOLECULE: C=C(CO)CC(/C=C(\C)CC/C=C(\C)CCl)OC(C)=O (configuration not stated)
SUBJECT OF TEST: NCI-H460
GI50: > 100 µM (inactive)

MOLECULE: O=C(Nc1ccn(C2CC(O)C(CO)O2)c(=O)n1)c1ccccc1 (configuration not stated)
SUBJECT OF TEST: NCI-H460
GI50: > 100 µM (inactive)

MOLECULE: Cn1c(N)nc2c(nc(OCc3ccccc3)n2C2OC(CO)C(O)C2O)c1=O (configuration not stated)
SUBJECT OF TEST: NCI-H460
GI50: > 100 µM (inactive)

MOLECULE: C=C1CN(C2=NCCO2)C1
SUBJECT OF TEST: NCI-H460
GI50: > 100 µM (inactive)

MOLECULE: Cc1ccc(S(=O)(=O)c2c(O)c3ccccc3n(C)c2=O)cc1
SUBJECT OF TEST: NCI-H460
GI50: > 100 µM (inactive)

MOLECULE: c1cncc(C(Nc2cccc3cccnc23)Nc2cccc3cccnc23)c1
SUBJECT OF TEST: NCI-H460
GI50: > 100 µM (inactive)

MOLECULE: CCOC(=O)C(NC(=O)c1ccccc1)(Nc1ccc(S(=O)(=O)Nc2cc(C)on2)cc1)C(F)(F)F (configuration not stated)
SUBJECT OF TEST: NCI-H460
GI50: > 100 µM (inactive)

MOLECULE: COc1cc2c3c(n(C)c(=O)c2cc1OC)-c1cc2c(cc1/C3=C\CCCI)OCO2
SUBJECT OF TEST: NCI-H460
GI50: 5.42 µM (inactive)

MOLECULE: C[C@@H]1[C@@H](c2ccccc2)O[B-](c2ccccc2)(c2ccccc2)N1C
SUBJECT OF TEST: NCI-H460
GI50: 45.2 µM (inactive)

MOLECULE: [N-]=[N+]=CC(=O)C1(C(=O)C=[N+]=[N-])CC1
SUBJECT OF TEST: NCI-H460
GI50: > 100 µM (inactive)

MOLECULE: Cc1nc2ccccc2c(=O)n1/N=C(\N=N\c1cccc(Cl)c1)c1ccccc1Cl
SUBJECT OF TEST: NCI-H460
GI50: 49.9 µM (inactive)

MOLECULE: O=C(Nc1noc(-c2ccccc2)n1)c1ccccc1CNc1noc(-c2ccccc2)n1
SUBJECT OF TEST: NCI-H460
GI50: > 100 µM (inactive)

MOLECULE: CN1CCN(CCNc2ccc(CO)c3sc4ccccc4c(=O)c23)CC1
SUBJECT OF TEST: NCI-H460
GI50: 4.34 µM (inactive)

MOLECULE: O=C(NCCO)c1ccc([N+](=O)[O-])cc1
SUBJECT OF TEST: NCI-H460
GI50: > 100 µM (inactive)

MOLECULE: COC1/C=C/OC2(C)Oc3c(C)c(O)c4c(c3C2=O)C(=O)C=C(NC(=O)/C(C)=C\C=C\C(C)C(OC=O)C(C)C(O)C(C)C(OC(C)=O)C1C)C4=O (configuration not stated)
SUBJECT OF TEST: NCI-H460
GI50: 21.1 µM (inactive)

MOLECULE: O=C1C2CCCCC2C(=O)N1n1c(-c2ccccc2)n[nH]c1=O (configuration not stated)
SUBJECT OF TEST: NCI-H460
GI50: > 100 µM (inactive)

MOLECULE: O=C(/C=C/c1ccc2c(c1)OCO2)NCCc1ccco1
SUBJECT OF TEST: NCI-H460
GI50: 69.8 µM (inactive)

MOLECULE: Nc1ncnc2c1ncn2COC/C=C/I
SUBJECT OF TEST: NCI-H460
GI50: > 100 µM (inactive)

MOLECULE: CC(=O)NC1C(OCc2ccccc2)OC(CO)C(O)C1OCC(=O)N1CCCC1C(=O)N[C@@H](CCC(=O)NCCNCCNc1c2ccccc2nc2cccc([N+](=O)[O-])c12)C(N)=O (some centres not stated)
SUBJECT OF TEST: NCI-H460
GI50: 0.849 µM (active)

MOLECULE: O=C1c2ccccc2S(=O)(=O)c2cc(-c3nn[nH]n3)ccc21
SUBJECT OF TEST: NCI-H460
GI50: > 100 µM (inactive)

MOLECULE: O=C1CC(C(OCc2ccccc2)C(OCc2ccccc2)C(COCc2ccccc2)OCc2ccccc2)CC(=O)N1 (configuration not stated)
SUBJECT OF TEST: NCI-H460
GI50: > 75 µM (inactive)

MOLECULE: CC(=O)Nc1ccc(COC(O)CN2CCCCC2)cc1[N+](=O)[O-] (configuration not stated)
SUBJECT OF TEST: NCI-H460
GI50: > 100 µM (inactive)

MOLECULE: COc1ccc(Oc2nc(C#CC(C)(C)O)nc(Oc3ccc(OC)cc3)n2)cc1
SUBJECT OF TEST: NCI-H460
GI50: 16.7 µM (inactive)

MOLECULE: CCOC(=O)C(=Cc1ccc(C(=O)OC)cc1)C(=O)OCC
SUBJECT OF TEST: NCI-H460
GI50: 21.1 µM (inactive)

MOLECULE: CSc1ncc2c(n1)-c1ccccc1OC2N1CCOCC1 (configuration not stated)
SUBJECT OF TEST: NCI-H460
GI50: 41.5 µM (inactive)

MOLECULE: CCOC(=O)c1c(N)sc2c1CC(C)CC2 (configuration not stated)
SUBJECT OF TEST: NCI-H460
GI50: 35.6 µM (inactive)

MOLECULE: OC12c3ccccc3C1CCCCC2N1CCCC1 (configuration not stated)
SUBJECT OF TEST: NCI-H460
GI50: > 100 µM (inactive)

MOLECULE: O=S(=O)(O)SCCNCCCCCC1CCCCC1
SUBJECT OF TEST: NCI-H460
GI50: 4.72 µM (inactive)

MOLECULE: CC1=C(C#N)S(=O)(=O)c2c(oc(C)c2C)N1
SUBJECT OF TEST: NCI-H460
GI50: > 100 µM (inactive)

MOLECULE: C[C@]12CCC(=O)C(O)=C1CC[C@@H]1C2CC[C@]2(C)Nc3c(cnn3-c3ccccc3)CC12 (some centres not stated)
SUBJECT OF TEST: NCI-H460
GI50: 48.8 µM (inactive)

MOLECULE: O=C(/C=C/c1ccc(Cl)c(Cl)c1)c1ccc(F)cc1
SUBJECT OF TEST: NCI-H460
GI50: 23.6 µM (inactive)

MOLECULE: Cc1c2ccccc2nc2[nH]c3ccncc3c12
SUBJECT OF TEST: NCI-H460
GI50: 15.4 µM (inactive)

MOLECULE: CCOC(=O)c1cnccc1CC1(C#N)c2ccccc2C=CN1C(=O)c1ccccc1 (configuration not stated)
SUBJECT OF TEST: NCI-H460
GI50: 23.4 µM (inactive)

MOLECULE: CCCCSC1=N/C(=C\c2ccccc2O)C(Cl)=N1
SUBJECT OF TEST: NCI-H460
GI50: > 100 µM (inactive)

Just for reference, ChEMBL document CHEMBL1201862 is where these values come from.
